- System name: Escherichia coli nitroreductase nfsB (oxygen-insensitive NAD(P)H nitroreductase) (Escherichia coli K-12)
- Sequence (P38489 whole entry): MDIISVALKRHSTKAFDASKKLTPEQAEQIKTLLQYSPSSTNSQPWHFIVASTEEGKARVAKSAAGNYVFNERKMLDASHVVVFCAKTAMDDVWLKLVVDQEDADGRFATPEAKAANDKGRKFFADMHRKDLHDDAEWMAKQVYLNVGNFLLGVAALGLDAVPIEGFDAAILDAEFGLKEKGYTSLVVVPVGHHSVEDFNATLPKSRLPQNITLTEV
- Experiment notes: Substrate activity at Escherichia coli nitroreductase nfsB assessed as Km using NADH as cofactor in Tris-Cl buffer at pH 7.5 by spectrophotometric method
- Assay type: ADME
Value type: Km

Need Km of NC(=O)c1cc(N(CCCl)CCCl)c([N+](=O)[O-])cc1[N+](=O)[O-] , thanks.
2500 µM

---

I'd be grateful if you could share measured half-life at 100 µM for these entries.
- System name: Staphylococcus saprophyticus nitroreductase (Staphylococcus saprophyticus subsp. saprophyticus (strain ATCC 15305 / DSM20229 / NCIMB 8711 / NCTC 7292 / S-41))
- Experiment notes: Substrate activity at Staphylococcus saprophyticus nitroreductase expressed in Escherichia coli assessed as half life […] at 100 uM by HPLC analysis (0 to 5 mins at 20% ACN, 25 to 35 min at 80% ACN, 40 to 45 min at 20% ACN)
- Format: ADME

Need half-life at 100 µM of O=C(c1ccc([N+](=O)[O-])cc1)N1CCN(C(=O)c2ccc([N+](=O)[O-])cc2)CC1 , thanks.
< 1.42 h

Need half-life at 100 µM of O=C(NC1CCC(NC(=O)c2ccc([N+](=O)[O-])cc2)CC1)c1ccc([N+](=O)[O-])cc1 (configuration not stated) , thanks.
< 1.5 h

Need half-life at 100 µM of O=C(NC1CCCC(NC(=O)c2ccc([N+](=O)[O-])cc2)C1)c1ccc([N+](=O)[O-])cc1 (configuration not stated) , thanks.
< 0.26 h

Need half-life at 100 µM of O=C(NCCNC(=O)c1ccc([N+](=O)[O-])cc1)c1ccc([N+](=O)[O-])cc1 , thanks.
< 2.54 h

Need half-life at 100 µM of O=C(Nc1ccccc1NC(=O)c1ccc([N+](=O)[O-])cc1)c1ccc([N+](=O)[O-])cc1 , thanks.
< 3.2 h

Need half-life at 100 µM of O=C(c1ccc([N+](=O)[O-])cc1)N1CCCCC1 , thanks.
< 0.02 h

Need half-life at 100 µM of O=C(NC1CCCCC1NC(=O)c1ccc([N+](=O)[O-])cc1)c1ccc([N+](=O)[O-])cc1 (configuration not stated) , thanks.
< 1.8 h

---

- System name: Staphylococcus saprophyticus nitroreductase (Staphylococcus saprophyticus subsp. saprophyticus (strain ATCC 15305 / DSM20229 / NCIMB 8711 / NCTC 7292 / S-41), UniProt Q4A0P1)
- Sequence (Q4A0P1 whole entry): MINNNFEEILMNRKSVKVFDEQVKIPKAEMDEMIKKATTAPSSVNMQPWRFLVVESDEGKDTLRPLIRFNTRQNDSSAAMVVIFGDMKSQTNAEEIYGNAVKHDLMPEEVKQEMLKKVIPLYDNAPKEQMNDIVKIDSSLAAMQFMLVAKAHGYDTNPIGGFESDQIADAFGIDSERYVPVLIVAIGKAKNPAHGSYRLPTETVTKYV
- Experiment notes: Substrate activity at Staphylococcus saprophyticus nitroreductase expressed in Escherichia coli assessed as half life in the presence of NADPH at 150 uM by HPLC analysis (0 to 5 mins at 20% ACN, 25 to 35 min at 80% ACN, 40 to 45 min at 20% ACN)
- Assay type: ADME
Value type: half-life

Need half-life of CCN(C(C)=O)c1cc([N+](=O)[O-])cc([N+](=O)[O-])c1 , thanks.
< 1.2 min

---

- Experiment notes: Cytotoxicity against human PC3 cells assessed as cell viability at 9 to 150 uM measured after 48 hrs by MTT assay relative to control
- Assay type: cell-based, PC-3
- Study conditions: read-out: Activity
Value type: viability at 48 h, up to 150 µM

Need viability at 48 h, up to 150 µM of CCCCN(CCCC)c1c([N+](=O)[O-])cc(C(=O)Nc2ccc(Cl)cc2)cc1[N+](=O)[O-] , thanks.
< 50%

Need viability at 48 h, up to 150 µM of O=C(NCCCCNC(=O)c1ccc([N+](=O)[O-])cc1)c1ccc([N+](=O)[O-])cc1 , thanks.
> 80%

Need viability at 48 h, up to 150 µM of O=C(Nc1ccccc1NC(=O)c1ccc([N+](=O)[O-])cc1)c1ccc([N+](=O)[O-])cc1 , thanks.
> 80%

Need viability at 48 h, up to 150 µM of O=C(c1ccc([N+](=O)[O-])cc1)N1CCN(C(=O)c2ccc([N+](=O)[O-])cc2)CC1 , thanks.
51 to 80%

---

- Experiment notes: Cytotoxicity against human HUVEC cells assessed as cell viability at 9 to 150 uM measured after 48 hrs by MTT assay relative to control
- Type: cell-based
- Study conditions: read-out: Activity
I'd be grateful if you could share measured viability at 48 h, up to 150 µM for these entries.

Need viability at 48 h, up to 150 µM of CCN(C(C)=O)c1cc([N+](=O)[O-])ccc1Br , thanks.
> 80%

Need viability at 48 h, up to 150 µM of O=C(NC1CCC(NC(=O)c2ccc([N+](=O)[O-])cc2)CC1)c1ccc([N+](=O)[O-])cc1 (configuration not stated) , thanks.
> 80%

Need viability at 48 h, up to 150 µM of CCCCN(CCCC)c1c([N+](=O)[O-])cc(C(=O)Nc2ccc(Cl)cc2)cc1[N+](=O)[O-] , thanks.
< 50%

Need viability at 48 h, up to 150 µM of O=C(NC1CCCC(NC(=O)c2ccc([N+](=O)[O-])cc2)C1)c1ccc([N+](=O)[O-])cc1 (configuration not stated) , thanks.
> 80%

Need viability at 48 h, up to 150 µM of CCCCN(CCCC)c1c([N+](=O)[O-])cc(C(=O)Nc2ccc([N+](=O)[O-])cc2)cc1[N+](=O)[O-] , thanks.
< 50%

Need viability at 48 h, up to 150 µM of CN(C)c1c([N+](=O)[O-])cc(C(=O)Nc2ccc(Cl)cc2)cc1[N+](=O)[O-] , thanks.
51 to 80%

Need viability at 48 h, up to 150 µM of O=C(Nc1ccc(NC(=O)c2ccc([N+](=O)[O-])cc2)cc1)c1ccc([N+](=O)[O-])cc1 , thanks.
> 80%

Need viability at 48 h, up to 150 µM of O=C(Nc1cccc(NC(=O)c2ccc([N+](=O)[O-])cc2)c1)c1ccc([N+](=O)[O-])cc1 , thanks.
> 80%

Need viability at 48 h, up to 150 µM of O=C(c1ccc([N+](=O)[O-])cc1)N1CCCCC1 , thanks.
> 80%

Need viability at 48 h, up to 150 µM of O=C(c1ccc([N+](=O)[O-])cc1)N1CCN(C(=O)c2ccc([N+](=O)[O-])cc2)CC1 , thanks.
> 80%

Need viability at 48 h, up to 150 µM of O=C(NCCCCNC(=O)c1ccc([N+](=O)[O-])cc1)c1ccc([N+](=O)[O-])cc1 , thanks.
> 80%

Need viability at 48 h, up to 150 µM of CC(=O)Nc1cc([N+](=O)[O-])cc([N+](=O)[O-])c1 , thanks.
> 80%

Data provenance is ChEMBL document CHEMBL4393661.
